Test system: Botrytis cinerea
Test: Test B: tomato Botrytis, preventive spray on tomato seedlings, visual disease rating
Conditions: tomato Botrytis; 100 = 100% disease control, 0 = no control relative to controls
recorded-metric: Test B rating (% disease control) (%)
Entry rule: numbers only, all in %.

The following compounds have reported results that may help.
{"compound": "Cc1cccc(Oc2c(-c3c(F)cc(F)cc3F)c(C)nn2C)c1 [compound 219]", "recorded-metric": "Test B rating (% disease control)", "quantitative-readout": 70}
{"compound": "Cc1nn(C)c(Oc2ccc([N+](=O)[O-])c(C#N)c2)c1-c1c(F)cc(F)cc1F [compound 156]", "recorded-metric": "Test B rating (% disease control)", "quantitative-readout": 94}
{"compound": "COc1ccc(Nc2c(-c3c(F)cccc3F)c(C)nn2C)c(Cl)c1 [compound 201]", "recorded-metric": "Test B rating (% disease control)", "quantitative-readout": 99}
{"compound": "COc1cc(F)c(Nc2c(-c3c(F)cccc3C(F)(F)F)c(C)nn2C)c(F)c1 [compound 263]", "recorded-metric": "Test B rating (% disease control)", "quantitative-readout": 100}
{"compound": "Cc1nn(C)c(Nc2ccc(F)cc2)c1-c1cccc(F)c1F [compound 205]", "recorded-metric": "Test B rating (% disease control)", "quantitative-readout": 100}

Recorded result, Cc1cc(Oc2c(-c3c(F)cc(F)cc3F)c(C)nn2C)ccc1Cl [compound 157] , Test B rating (% disease control): 0

Recorded result, Cc1nn(C)c(Nc2ccc(F)cc2)c1-c1ccc(F)cc1F [compound 194] , Test B rating (% disease control): 97

Recorded result, Cc1nn(C)c(Nc2cc(Cl)ccc2Cl)c1-c1ccc(F)cc1F [compound 245] , Test B rating (% disease control): 90

Recorded result, Cc1nn(C)c(Nc2ccc(Cl)cc2Cl)c1-c1c(F)cccc1Cl [compound 283] , Test B rating (% disease control): 99

Recorded result, COc1cc(F)c(Nc2c(-c3ccccc3F)c(C)nn2C)c(F)c1 [compound 183] , Test B rating (% disease control): 97
